target desc: T1, P2-AA-12HAA-I
T1 chain: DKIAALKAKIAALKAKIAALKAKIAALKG
assay procedure: two-hybrid library CCmax;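 further: natural log of median RNA to DNA barcode read ratio; higher means stronger binding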
applied conditions: mean of both orientations
observable: interaction score
Could you keep your reply to the number by itself?

What value of interaction score has been recorded for this entry: DEIAALEAELAALEAELAALEAEIAALEG [P1-AA-12HAA-L]
1.68

What value of interaction score has been recorded for this entry: DEIAALEAEYAALEAEYAALEAEIAALEG [P1-AA-12HAA-Y]
1.8

What value of interaction score has been recorded for this entry: DEIAALEAESAALEAESAALEAEIAALEG [P1-AA-12HAA-S]
1.69

What value of interaction score has been recorded for this entry: DEIAALEAEDAALEAEDAALEAEIAALEG [P1-AA-12HAA-D]
-0.345

The measured values listed here are drawn from paper PMC10397247.
